Kindly supply the reported pIC50 values for the records listed here.
# Measured target: Matrilysin (Homo sapiens)
# Sequence (P09237 whole entry): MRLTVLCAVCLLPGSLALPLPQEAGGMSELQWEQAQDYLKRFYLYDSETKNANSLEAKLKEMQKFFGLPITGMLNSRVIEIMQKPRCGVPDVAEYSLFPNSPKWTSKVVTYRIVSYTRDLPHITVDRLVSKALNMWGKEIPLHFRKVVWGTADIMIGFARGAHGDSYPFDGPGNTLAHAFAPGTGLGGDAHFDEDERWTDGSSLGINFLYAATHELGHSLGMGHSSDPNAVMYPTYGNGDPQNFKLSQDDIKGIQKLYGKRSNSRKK
Scale for pIC50: -log10 of concentration given in mol/L; no unit attached.

Exercise: Please look up its pIC50: COc1ccc(-c2cn(-c3ccc(S(=O)(=O)C4(C(=O)NO)CCOCC4)cc3)nn2)cc1
Solution: 7.15

Exercise: # get_value(readout='pIC50', item= C=CC[C@H](C(=O)NO)C(CC(C)C)C(=O)N[C@@H](Cc1ccccc1)C(=O)NC (some centres undefined) )
Solution: 7.52

###

# Measured target: UniProt P14780
# Method summary: Inhibition of MMP-9 (unknown origin) catalytic activity using Ac-PLG-[2-mercapto-4-methylpentanoyl]-LG-OC2H5 as substrate and measured upto 30 mins by microplate reader analysis
Readout: IC50 (nM)
Supply the numeric figure in nM, leaving out any unit text.

Exercise: Can you look up the measured IC50 of O=C(NO)C1(S(=O)(=O)c2ccc(-n3cc(-c4ccc(-c5ccccc5)cc4)nn3)cc2)CCOCC1 for me?
Solution: 98

Exercise: Entry under review: O=C(NO)C(Cc1ccccc1)NS(=O)(=O)c1ccc(-c2cn(-c3ccc(-c4ccccc4)cc3)nn2)cc1 (centres undefined) . Reported IC50?
Solution: 5.54

Exercise: So what's the measured IC50 for this one? CN(C)c1ccc(-c2cn(-c3ccc(S(=O)(=O)C4(C(=O)NO)CCOCC4)cc3)nn2)cc1
Solution: 43.9

Exercise: Find the recorded IC50 belonging to COc1ccc(-c2cn(-c3ccc(S(=O)(=O)C4(C(=O)NO)CCOCC4)cc3)nn2)cc1 and report it.
Solution: 11.3

###

# Measured target: Matrilysin (Homo sapiens, UniProt P09237)
# Sequence (P09237 whole entry): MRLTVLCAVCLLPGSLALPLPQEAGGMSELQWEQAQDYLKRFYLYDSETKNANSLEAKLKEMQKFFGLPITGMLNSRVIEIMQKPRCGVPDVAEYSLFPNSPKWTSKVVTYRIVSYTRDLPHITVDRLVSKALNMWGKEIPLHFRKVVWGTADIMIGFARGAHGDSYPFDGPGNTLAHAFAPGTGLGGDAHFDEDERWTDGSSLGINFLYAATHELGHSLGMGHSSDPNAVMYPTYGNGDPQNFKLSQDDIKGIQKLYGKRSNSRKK
Readout: IC50 (µM)
Provide the reading as a plain figure in µM.

Exercise: // lookup IC50 | system=Matrilysin (Homo sapiens, UniProt P09237) | key= CO[C@H](C(=O)NO)[C@@H](CC(C)C)C(=O)N[C@H](C(=O)Nc1ccccn1)C(C)(C)C
Solution: 0.005

Exercise: Query the reported IC50 for Matrilysin (Homo sapiens, UniProt P09237); item: CN(C)c1ccc(O)c2c1C[C@H]1C[C@H]3[C@H](N(C)C)C(O)=C(C(N)=O)C(=O)[C@@]3(O)C(O)=C1C2=O
Solution: 125

Exercise: For Matrilysin (Homo sapiens, UniProt P09237), provide IC50 of C[C@H]1c2cccc(O)c2C(=O)C2=C(O)[C@]3(O)C(=O)C(C(N)=O)=C(O)[C@@H](N(C)C)[C@@H]3[C@@H](O)[C@@H]21 please.
Solution: 28

###

# Measured target: Matrix metalloproteinase-14 (Homo sapiens)
# Method summary: Inhibition of MMP-14 (unknown origin) using Mca-Pro-Leu-Gly-Leu-Dpa-Ala-Arg-NH2 as substrate preincubated for 30 mins followed by substrate addition for 2 to 4 hrs by fluorimetric assay
Readout: IC50

Exercise: Query (compound): O=P(O)(O)C(NS(=O)(=O)c1ccc(-c2ccc(Cl)cc2)cc1)P(=O)(O)O ; field requested: IC50
Solution: > 1000 nM

###

Please provide measured Ki for the entries that follow.
Give the value, in units of µM, as a plain number.

Exercise: Recall the recorded Ki for C=CC[C@H](C(=O)NO)C(CC(C)C)C(=O)N[C@@H](Cc1ccccc1)C(=O)NC (some centres not stated) with Collagenase 3 (Homo sapiens, UniProt P45452) and state it.
Solution: 0.007

Exercise: Please state recorded Ki (tested on Collagenase 3 (Homo sapiens, UniProt P45452)) of O=C(C[C@@H](CSc1ccccc1)C(=O)O)c1ccc(-c2ccc(Cl)cc2)cc1
Solution: 147

###

For each of the molecules below, state its IC50.
# Measured target: UniProtKB P08253
# Sequence (P08253 whole entry): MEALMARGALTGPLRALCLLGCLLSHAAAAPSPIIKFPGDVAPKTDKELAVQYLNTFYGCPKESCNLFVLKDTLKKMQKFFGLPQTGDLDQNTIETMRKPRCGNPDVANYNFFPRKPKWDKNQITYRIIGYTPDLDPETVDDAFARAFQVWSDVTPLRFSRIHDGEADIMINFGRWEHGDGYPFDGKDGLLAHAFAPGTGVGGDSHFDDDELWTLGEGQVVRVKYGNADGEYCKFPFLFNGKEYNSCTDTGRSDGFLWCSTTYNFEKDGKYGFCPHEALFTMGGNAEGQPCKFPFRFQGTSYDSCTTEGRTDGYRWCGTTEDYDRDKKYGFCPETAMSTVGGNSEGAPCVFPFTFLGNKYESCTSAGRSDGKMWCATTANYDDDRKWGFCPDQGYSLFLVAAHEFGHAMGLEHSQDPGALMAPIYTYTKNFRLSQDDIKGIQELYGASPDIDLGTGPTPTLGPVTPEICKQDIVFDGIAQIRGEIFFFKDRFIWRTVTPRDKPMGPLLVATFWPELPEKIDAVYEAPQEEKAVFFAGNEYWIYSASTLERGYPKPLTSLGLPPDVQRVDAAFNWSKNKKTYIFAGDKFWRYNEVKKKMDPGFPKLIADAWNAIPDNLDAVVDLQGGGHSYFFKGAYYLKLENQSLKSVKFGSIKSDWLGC
# Method summary: Inhibition of MMP-2 (unknown origin) catalytic activity using Ac-PLG-[2-mercapto-4-methylpentanoyl]-LG-OC2H5 as substrate and measured upto 30 mins by microplate reader analysis
Report only the number, with the unit nM understood.

Exercise: Quick check: IC50 on UniProtKB P08253, item COc1ccc(-c2cn(-c3ccc(S(=O)(=O)C4(C(=O)NO)CCOCC4)cc3)nn2)cc1 ?
Solution: 0.3

Exercise: What value of IC50 on UniProtKB P08253 does O=C(NO)C1(S(=O)(=O)c2ccc(-n3cc(-c4ccc(-c5ccccc5)cc4)nn3)cc2)CCOCC1 have?
Solution: 1.4

Exercise: Missing value: IC50, UniProtKB P08253, entry CN(C)c1ccc(-c2cn(-c3ccc(S(=O)(=O)C4(C(=O)NO)CCOCC4)cc3)nn2)cc1 . Fill in?
Solution: 1.7

Exercise: Item O=C(NO)C(Cc1ccccc1)NS(=O)(=O)c1ccc(-c2cn(-c3ccc(-c4ccccc4)cc3)nn2)cc1 (centres undefined) with UniProtKB P08253 - IC50?
Solution: 1.3

###

# Measured target: Matrix metalloproteinase-9 (Homo sapiens, UniProt P14780)
# Sequence (P14780 whole entry): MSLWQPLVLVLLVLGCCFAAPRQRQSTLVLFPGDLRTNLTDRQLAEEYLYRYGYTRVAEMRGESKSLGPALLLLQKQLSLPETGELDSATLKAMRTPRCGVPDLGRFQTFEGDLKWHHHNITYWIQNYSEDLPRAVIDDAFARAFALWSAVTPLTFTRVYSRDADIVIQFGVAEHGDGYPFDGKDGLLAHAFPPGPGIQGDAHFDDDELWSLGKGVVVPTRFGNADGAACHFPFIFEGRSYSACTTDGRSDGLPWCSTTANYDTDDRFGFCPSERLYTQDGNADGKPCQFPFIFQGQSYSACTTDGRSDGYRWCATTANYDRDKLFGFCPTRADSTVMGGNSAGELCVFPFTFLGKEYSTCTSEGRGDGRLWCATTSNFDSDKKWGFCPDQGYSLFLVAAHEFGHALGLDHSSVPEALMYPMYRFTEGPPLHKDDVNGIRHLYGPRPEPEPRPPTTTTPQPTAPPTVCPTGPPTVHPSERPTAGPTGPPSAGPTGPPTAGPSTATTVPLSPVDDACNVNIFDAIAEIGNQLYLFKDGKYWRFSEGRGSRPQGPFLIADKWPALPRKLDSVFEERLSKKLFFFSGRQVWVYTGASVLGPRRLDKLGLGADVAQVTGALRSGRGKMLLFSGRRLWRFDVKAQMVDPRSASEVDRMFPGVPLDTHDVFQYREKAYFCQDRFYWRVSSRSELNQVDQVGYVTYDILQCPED
# Method summary: Inhibition of MMP-9 (unknown origin)
Assign Ki to each entry below.
Expressed in nM, but write only the number.

Exercise: Hi! What's the reported Ki for O=C(C[C@@H](CSc1ccccc1)C(=O)O)c1ccc(-c2ccc(Cl)cc2)cc1 on Matrix metalloproteinase-9 (Homo sapiens, UniProt P14780)?
Solution: 301

Exercise: Param readout = Ki; param system = Matrix metalloproteinase-9 (Homo sapiens, UniProt P14780); param query = C=CC[C@H](C(=O)NO)C(CC(C)C)C(=O)N[C@@H](Cc1ccccc1)C(=O)NC (some centres not stated) ; response: value
Solution: 3

###

Readout: IC50 (nM)
API: value field is a number in nM; no unit string.

Exercise: What reported IC50 corresponds to CN(C)c1ccc(-c2cn(-c3ccc(S(=O)(=O)C4(C(=O)NO)CCOCC4)cc3)nn2)cc1 on Stromelysin-2 (Homo sapiens, UniProt P09238)?
Solution: 44.5

Exercise: Query for Stromelysin-2 (Homo sapiens, UniProt P09238): what IC50 does the record show for COc1ccc(-c2cn(-c3ccc(S(=O)(=O)C4(C(=O)NO)CCOCC4)cc3)nn2)cc1 ?
Solution: 7.8

###

# Method summary: Clearance in Sprague-Dawley rats at 33 mg/kg, sc
# Type: ADME, organism-based
# Condition label: rat, in vivo
Readout: CL/F (mL/min/kg)
The answer is to be given in mL/min/kg; state only the numeric part.

Exercise: Given the entry O=C(NCCCCCCNS(=O)(=O)c1ccc(Oc2ccccc2)cc1)P(=O)(O)O , report its measured CL/F.
Solution: 7.1

###

# Measured target: Matrix metalloproteinase-9 (Homo sapiens, UniProt P14780)
# Method summary: Inhibition of MMP-9 (unknown origin) using Mca-Pro-Leu-Gly-Leu-Dpa-Ala-Arg-NH2 as substrate by fluorimetric assay
Readout: IC50 (µM)
Respond numerically; units are µM and should not be typed.

Exercise: Return reported IC50; argument: NCCCCC(NS(=O)(=O)c1ccc(-c2ccccc2)cc1)C(=O)O (stereo not drawn)
Solution: 40

Exercise: Quick one: IC50 of O=C(NCCCCC(NS(=O)(=O)c1ccc(-c2ccccc2)cc1)C(=O)O)OCc1ccccc1 (stereo not drawn) ?
Solution: 1.8

Exercise: I would be grateful if you could share the reported IC50 for O=C(NCCCCC(NS(=O)(=O)c1ccc(-c2ccc(Cl)cc2)cc1)C(=O)O)OCc1ccccc1 (stereo not drawn) .
Solution: 0.8

###

# Measured target: Interstitial collagenase (Homo sapiens, UniProt P03956)
# Sequence (P03956 whole entry): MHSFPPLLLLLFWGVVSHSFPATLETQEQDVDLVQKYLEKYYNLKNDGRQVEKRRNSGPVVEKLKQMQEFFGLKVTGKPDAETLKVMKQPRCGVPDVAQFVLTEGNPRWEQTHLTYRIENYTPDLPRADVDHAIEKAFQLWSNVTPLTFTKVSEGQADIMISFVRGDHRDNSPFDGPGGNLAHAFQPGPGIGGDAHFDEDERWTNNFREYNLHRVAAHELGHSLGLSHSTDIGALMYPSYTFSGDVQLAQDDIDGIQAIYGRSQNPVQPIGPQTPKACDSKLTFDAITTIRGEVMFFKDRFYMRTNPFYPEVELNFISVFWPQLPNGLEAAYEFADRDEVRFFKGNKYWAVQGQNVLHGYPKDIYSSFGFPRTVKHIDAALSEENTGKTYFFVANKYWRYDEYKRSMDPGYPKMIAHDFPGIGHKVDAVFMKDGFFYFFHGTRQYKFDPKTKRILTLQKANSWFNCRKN
# Method summary: Inhibition of MMP-1 (unknown origin)
pIC50: −log10 of the molar value.
Readout: pIC50

Exercise: Reported pIC50 for Interstitial collagenase (Homo sapiens, UniProt P03956), given O=C(NO)C(Cc1ccccc1)NS(=O)(=O)c1ccc(-c2cn(-c3ccc(-c4ccccc4)cc3)nn2)cc1 (stereo not drawn) ?
Solution: < 5.00

Exercise: Recorded pIC50 for CN(C)c1ccc(-c2cn(-c3ccc(S(=O)(=O)C4(C(=O)NO)CCOCC4)cc3)nn2)cc1 with Interstitial collagenase (Homo sapiens, UniProt P03956), please?
Solution: < 6.00

Exercise: Hello, I am looking for reported pIC50 with Interstitial collagenase (Homo sapiens, UniProt P03956) for O=C(NO)C1(S(=O)(=O)c2ccc(-n3cc(-c4ccc(-c5ccccc5)cc4)nn3)cc2)CCOCC1 . Could you help?
Solution: < 6.00
